meta.source: PubChem BioAssay (EPA / NIEHS)

Read-out: CYP2E1 (gene 1571)
assay: LTEA_HepaRG_CYP2E1: Life Technologies and Expression Analysis (LTEA) Assay for CYP2E1 using HepaRG (AID 2283485)
measurement-setup: mRNA level, 48 h; actives raise or lower the signal
Calls of active or inactive are those of the source. Rule for the calls: active = hit-call score of the fitted dose curve at least 0.9, where 1 is the maximum; inactive = score below 0.9.
Please reply with one of these outcomes: 1 for active, 0 for inactive

Could you kindly confirm the outcome this assay logged for C#CCC1=C(C)C(OC(=O)C2C(C=C(C)C)C2(C)C)CC1=O (stereo not drawn) ? 1

Subsequent entry: CNC(=O)ON=C(SC)C(=O)N(C)C 0

Subsequent entry: CCOP(=O)(NC(C)C)Oc1ccc(SC)c(C)c1 (stereo not drawn) 1

---

Read-out: Thyroid Hormone Responsive (THRSP), THRSP (gene 7069)
assay: LTEA_HepaRG_THRSP: Life Technologies and Expression Analysis (LTEA) Assay for Thyroid Hormone Responsive (THRSP) using HepaRG (AID 2283536)
measurement-setup: mRNA level, 48 h; actives raise or lower the signal
Activity calls are given as the source filed them. Rule for the calls: active = hit-call score of the fitted dose curve at least 0.9, where 1 is the maximum; inactive = score below 0.9.
Please reply with one of these outcomes: active, inactive

Could you kindly confirm the outcome this assay logged for CCCCOC(=O)[C@@H](C)Oc1ccc(Oc2ccc(C#N)cc2F)cc1 ? inactive

Subsequent entry: CSc1nnc(C(C)(C)C)c(=O)n1N inactive

Subsequent entry: CNC(=O)Oc1cccc2c1OC(C)(C)O2 inactive

Subsequent entry: CCCCOC(=O)c1ccccc1C(=O)O inactive

Subsequent entry: CCCCN(CC)c1c([N+](=O)[O-])cc(C(F)(F)F)cc1[N+](=O)[O-] inactive

Subsequent entry: CCCOCC(=Nc1ccc(Cl)cc1C(F)(F)F)n1ccnc1 active

Subsequent entry: CC(COc1ccc(Oc2ccccc2)cc1)Oc1ccccn1 (stereo not given) active

Subsequent entry: CCOP(=O)(SC(C)CC)N1CCSC1=O (stereo not given) inactive

Subsequent entry: C[Si](Cn1cncn1)(c1ccc(F)cc1)c1ccc(F)cc1 active

Subsequent entry: CC(C)=CC1C(C(=O)OCN2C(=O)C3=C(CCCC3)C2=O)C1(C)C (stereo not given) inactive

Subsequent entry: CCNc1nc(Cl)nc(NC(C)(C)C#N)n1 inactive

Subsequent entry: CCc1cccc(C)c1N(C(=O)CCl)C(C)COC (stereo not given) inactive

Subsequent entry: Cc1nn(-c2cc(NS(C)(=O)=O)c(Cl)cc2Cl)c(=O)n1C(F)F inactive

Subsequent entry: CC(C1CC1)C(O)(Cn1cncn1)c1ccc(Cl)cc1 (stereo not given) active

Subsequent entry: CCCSP(=O)(OCC)Oc1ccc(Br)cc1Cl (stereo not given) inactive

---

assay: Tanguay_ZF_120hpf_YSE_legacy: (Legacy) Oregon State University Tanguay Lab 120 Hour Post-fertilization zebrafish Assay for Yolk Sac Edema (AID 2283634)
Inconclusive results are not listed. The source made the active and inactive calls. Rule for the calls: active = hit-call score of the fitted dose curve at least 0.9, where 1 is the maximum; inconclusive = response in the unintended direction; inactive = score below 0.9.
Please reply with one of these outcomes: active, inactive

Could you kindly confirm the outcome this assay logged for CC(Oc1cccc(Cl)c1)C(=O)O (stereo not drawn) ? inactive

Subsequent entry: COP(=O)(NC(C)=O)SC (stereo not drawn) inactive

Subsequent entry: CCCSP(=O)(OCC)Oc1ccc(Br)cc1Cl (stereo not drawn) inactive

Subsequent entry: CNC(=O)ON=C(SC)C(=O)N(C)C inactive

Subsequent entry: FC(F)C(F)(F)OCC(Cn1cncn1)c1ccc(Cl)cc1Cl (stereo not drawn) active

Subsequent entry: O=c1ccc(=O)[nH][nH]1 active

Subsequent entry: CCOP(=S)(OCC)OC(Cl)C(Cl)(Cl)Cl (stereo not drawn) inactive

Subsequent entry: CCNc1nc(Cl)nc(NC(C)(C)C#N)n1 inactive

Subsequent entry: O=[N+]([O-])c1cc(C(F)(F)F)c(Cl)c([N+](=O)[O-])c1Nc1ncc(C(F)(F)F)cc1Cl inactive

Subsequent entry: CCCSP(=O)(OCC)SCCC inactive

Subsequent entry: CCCCOC(=O)c1ccccc1C(=O)O inactive

Subsequent entry: S=C1NCCN1 inactive

Subsequent entry: CN(C)[C@@H]1C(=O)C(C(N)=O)=C(O)[C@@]2(O)C(=O)C3=C(O)c4c(O)cccc4[C@@](C)(O)[C@H]3[C@H](O)[C@@H]12 inactive

Subsequent entry: CCC(=O)Nc1ccc(Cl)c(Cl)c1 inactive

Subsequent entry: CCCOc1nn(C(=O)NS(=O)(=O)c2ccccc2C(=O)OC)c(=O)n1C inactive

Subsequent entry: C[Si](Cn1cncn1)(c1ccc(F)cc1)c1ccc(F)cc1 active

Subsequent entry: O=C(O)c1cc(Oc2ccc(C(F)(F)F)cc2Cl)ccc1[N+](=O)[O-] inactive

Subsequent entry: CNC(=O)Oc1cccc2c1OC(C)(C)O2 inactive

Subsequent entry: CON=C(C(=O)OC)c1ccccc1CON=C(C)c1cccc(C(F)(F)F)c1 active

Subsequent entry: CN(C)C(=O)Nc1cccc(C(F)(F)F)c1 inactive

Subsequent entry: CC(C1CC1)C(O)(Cn1cncn1)c1ccc(Cl)cc1 (stereo not drawn) active

Subsequent entry: COc1ccc(C(=CC(=O)N2CCOCC2)c2ccc(Cl)cc2)cc1OC active

Subsequent entry: Nc1nc(N)nc(NC2CC2)n1 inactive

Subsequent entry: CC(C)[C@H](C(=O)O[C@H](C#N)c1cccc(Oc2ccccc2)c1)c1ccc(Cl)cc1 active

Subsequent entry: CN1COCN(Cc2cnc(Cl)s2)C1=N[N+](=O)[O-] inactive

Subsequent entry: N#CSCSC#N inactive

Subsequent entry: COc1cc(OC)nc(Sc2cccc(Cl)c2C(=O)O)n1 inactive

Subsequent entry: Cc1ccn2nc(S(=O)(=O)Nc3c(F)cccc3F)nc2n1 inactive
